molecular target: SV40 large T antigen (Tag) (Simian virus 40, UniProt P03070 1-708); experiment: DSF
Sequence (P03070 whole entry): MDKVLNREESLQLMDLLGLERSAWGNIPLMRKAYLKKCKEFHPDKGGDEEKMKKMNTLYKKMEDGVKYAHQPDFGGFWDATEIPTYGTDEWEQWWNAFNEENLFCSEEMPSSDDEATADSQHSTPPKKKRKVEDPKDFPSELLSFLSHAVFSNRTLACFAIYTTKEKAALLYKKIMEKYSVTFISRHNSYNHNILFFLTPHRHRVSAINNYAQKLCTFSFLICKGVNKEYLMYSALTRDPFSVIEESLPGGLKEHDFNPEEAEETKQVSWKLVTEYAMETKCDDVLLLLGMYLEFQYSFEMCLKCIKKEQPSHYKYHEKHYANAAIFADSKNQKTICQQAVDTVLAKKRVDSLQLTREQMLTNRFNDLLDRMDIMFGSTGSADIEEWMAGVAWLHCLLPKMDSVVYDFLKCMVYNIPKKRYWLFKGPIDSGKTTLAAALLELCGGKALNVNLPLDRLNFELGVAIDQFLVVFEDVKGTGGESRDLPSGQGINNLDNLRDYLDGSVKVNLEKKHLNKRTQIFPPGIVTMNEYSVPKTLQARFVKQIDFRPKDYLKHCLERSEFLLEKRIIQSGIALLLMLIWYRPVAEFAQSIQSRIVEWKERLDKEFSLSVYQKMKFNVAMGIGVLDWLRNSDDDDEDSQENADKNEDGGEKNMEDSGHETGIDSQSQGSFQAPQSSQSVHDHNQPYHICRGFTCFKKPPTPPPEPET
readout type: pKd
Lab note: report pKd as minus log10 of the concentration in molar units, number only.

Input line: I'd like to know its pKd. The binder in question is ssDNA(Site2) (ssDNA) DNA: GCTCAGAGGCCGAGGCGGCCTCGGCCTCTGCATAAATAAAAAAAATTAGTCAGCCAT
Output line: 6.70
